Test system: OVCAR-8 (Ovarian Carcinoma);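 note: after 72 h of two-drug dosing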
Test: Bliss excess, mean over the matrix (fraction); higher = more synergy
Property Label: Bliss excess
I'd appreciate a reply containing only the number, no unit.

Solved entries (count: 5):
1) Cc1c2c(nn1C)CSCc1cc(n(C)n1)CSc1cc(c3ccccc3c1)OCCCc1c(C(=O)O)n(C)c3c-2c(Cl)ccc13 [AZD5991] + Cc1cc2ncnn2cc1Nc1ncc2c(n1)n(C1CCOCC1)c(=O)n2C [AZD7648] (first compound max 1 µM, 7x7, partner max 10 µM)    -0.0129
2) Cc1cc2ncnn2cc1Nc1ncc2c(n1)n(C1CCOCC1)c(=O)n2C [AZD7648] + O=C(c1cc(Cc2n[nH]c(=O)c3ccccc23)ccc1F)N1CCN(C(=O)C2CC2)CC1 [Olaparib] (first compound max 10 µM, 7x7, partner max 10 µM)    -0.0103
3) CN(CCO)CC[C@H](CSc1ccccc1)Nc1ccc(S(=O)(=O)NC(=O)c2ccc(N3CCC([C@@H](O)c4ccccc4-c4ccc(Cl)cc4)CC3)cc2)cc1S(=O)(=O)C(F)(F)F [AZD4320] + C[C@@H]1COCCN1C2=NC(=NC(=C2)C3(CC3)[S@](=N)(=O)C)C4=C5C=CNC5=NC=C4 [AZD6738] (first compound max 1 µM, 7x7, partner max 10 µM)    -0.0222
4) CC1(C)CCC(CN2CCN(c3ccc(C(=O)NS(=O)(=O)c4ccc(NCC5CCOCC5)c([N+](=O)[O-])c4)c(Oc4cnc5[nH]ccc5c4)c3)CC2)=C(c2ccc(Cl)cc2)C1 [Venetoclax] + C[C@@H]1COCCN1C2=NC(=NC(=C2)C3(CC3)[S@](=N)(=O)C)C4=C5C=CNC5=NC=C4 [AZD6738] (first compound max 1 µM, 7x7, partner max 10 µM)    -0.0444
5) COc1nnc2ccc(N3CCC(c4ccc(OCCN5CCN(C)C(=O)[C@H]5C)cc4)CC3)nn12 [AZD5153] + CCN(CCO)CCCOc1ccc2c(Nc3cc(CC(=O)Nc4cccc(F)c4)[nH]n3)ncnc2c1 [AZD2811] (first compound max 1 µM, 7x7, partner max 1 µM)    -0.0131

Q. Query: Bliss excess; subject: CN(C)CCCOc1ccc(-c2ccc3ncc4c(c3c2)n(C2CCOCC2)c(=O)n4C)cn1 [AZD0156] + O=C(c1cc(Cc2n[nH]c(=O)c3ccccc23)ccc1F)N1CCN(C(=O)C2CC2)CC1 [Olaparib] (first compound max 3 µM, partner max 3 µM)
A. 0.0073

Q. Try this compound next: COc1nnc2ccc(N3CCC(c4ccc(OCCN5CCN(C)C(=O)[C@H]5C)cc4)CC3)nn12 [AZD5153] + Cc1c2c(nn1C)CSCc1cc(n(C)n1)CSc1cc(c3ccccc3c1)OCCCc1c(C(=O)O)n(C)c3c-2c(Cl)ccc13 [AZD5991] (first compound max 1 µM, 7x7, partner max 1 µM)
A. 0.0205
